Test Summary: NCI Yeast Anticancer Drug Screen. Data for the cln2 rad14 strain (AID 165);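 note: 0% = growth equal to vehicle treated cultures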
Condition Summary: S. cerevisiae cln2 rad14 strain, at 50.0 µM, stronger effect = higher value
About 79,000 compounds went through this panel and 15% of them were active in at least one assay; those are over-represented in the sample as a whole.
Give measured growth inhibition for each item. Keep answers brief.
Quick note: give the figure in %, leave out the unit.

Entry O=[N+]([O-])c1ccc(N/N=C2\C=CCCC2)c([N+](=O)[O-])c1 has what growth inhibition?
15.3

Would you kindly share the measured growth inhibition for CCCCNCCCNCCCC ?
-0.7

What value of measured growth inhibition is listed for Cc1ccc(C(=O)CC2(O)C(=O)Nc3ccccc32)cc1 (configuration not stated) ?
16.9

I have this compound here, CCCc1ccc(OCC(=O)O)c(OC)c1 , and I need its recorded growth inhibition.
4.4

GET /values?readout=growth inhibition&item= CN(C)CCCCl
-26.8

Quick check: growth inhibition of Cc1nc2nc[nH]n2c1N=Nc1ccccc1 ?
-13

Need growth inhibition of Cc1ccc(C(=O)Oc2ccccc2)cc1N=NN(C)C , thanks.
25.5

----------
For each entry below, report its growth inhibition value.
Test Summary: NCI Yeast Anticancer Drug Screen. Data for the mlh1 rad18 strain (AID 175)
Condition Summary: S. cerevisiae mlh1 rad18 strain growth inhibition; at 50.0 µM; stronger effect = higher value
About 79,000 compounds went through this panel and 15% of them were active in at least one assay; those are over-represented in the sample as a whole. Calls of active or inactive are those of the source. No stated cut-off is given here; in the data, active means growth inhibition above about 70%; inactive means the rest.

# growth inhibition lookup, item Cn1c(=O)oc2cc(C(O)CN3CCN(Cc4ccccn4)CC3)c(Cl)cc21 (stereo unspecified)
11.4% (inactive)

Could you share which growth inhibition value was measured for CCCCCCCCCC[CH2][Sn]([CH2]CCCCCCCCCC)([CH2]CCCCCCCCCC)[CH2]CCCCCCCCCC ?
23.7% (inactive)

Which growth inhibition value is on record for CC(C)(Nc1nc2c(ncn2C2OC(CO)C(O)C2O)c(=O)[nH]1)P(=O)(O)O (stereo unspecified) ?
2.9% (inactive)

Could you share which growth inhibition value was measured for COc1nnc(-c2ccccc2)c(-c2ccccc2)n1 ?
6.5% (inactive)

Could you share which growth inhibition value was measured for CC(O)(C(=O)O)C(NC(=O)c1ccccc1)C(=O)O (stereo unspecified) ?
2.45% (inactive)

Suppose we examine the molecule Cc1cc(N(CCC#N)CCC#N)ccc1N=Nc1ccccc1[N+](=O)[O-] ; what growth inhibition value has been reported?
-24.1% (inactive)

Quick one: growth inhibition for O=c1ccc2c(-c3ccccc3O)c3ccc(O)cc3oc-2c1 ?
95.5% (active)

I have this molecule here, COc1ccc2c(c1)N(S(=O)(=O)c1ccc(C)cc1)C[C@@H]1c3cc(O)c(OCc4ccccc4)cc3O[C@H]21 , and I need its recorded growth inhibition.
15.6% (inactive)

I am curious: what growth inhibition value has been reported for CC(C)CNC(=S)N/N=C/C=C/c1ccc(C(C)C)cc1 ?
0.35% (inactive)

GET /values?readout=growth inhibition&item= CCN(CC)c1ccccc1S(=O)(=O)O
-6.35% (inactive)

# lookup: growth inhibition of CCCN=C(NNC(N)=O)C(C)=O
-1.45% (inactive)

----------
Would you kindly list growth inhibition for each of these compounds?
Test Summary: NCI Yeast Anticancer Drug Screen. Data for the bub3 strain (AID 167)
Condition Summary: S. cerevisiae bub3 mutant strain, at 50.0 µM, stronger effect = higher value
About 79,000 compounds went through this panel and 15% of them were active in at least one assay; those are over-represented in the sample as a whole. Where a SMILES comes first, the peptide text is derived from it. The star is where a group is joined. Boc = CC(C)(C)OC(=O)*
Reply with just the number (in %).

Which growth inhibition is listed for Clc1ccc(C=Nc2ccc3c(c2)Cc2ccccc2-3)c(Cl)c1 ?
-35.2

Fill in the blank: the reported growth inhibition of CCOC(=O)C1CCN(S(=O)(=O)c2ccccc2)CC1 is ____.
18.6

What does the record list as growth inhibition for NCCCCC(N)C(=O)NC1C(CO)OC(n2cnc3c(N)ncnc32)C1O (configuration not stated) ?
5.75

Param item = C/C=C/C=C\C(=O)C1c2cccc(O)c2C(=O)c2c(O)cc(C)cc21 (configuration not stated) ; retrieve measured growth inhibition.
37.5

Can you share its growth inhibition? I mean this compound: CC1(C)COC(c2ccc(C(C)(C)C)cc2C(O)(c2cc(C(C)(C)C)ccc2C2=NC(C)(C)CO2)c2cc(C(C)(C)C)ccc2C2=NC(C)(C)CO2)=N1
28.6

Give its growth inhibition value. Item: O=C(Nc1ccccc1-c1nn(CO)c(=S)n(CO)c1=O)C(F)(F)F
-22.6

Consider the compound CC(C)(C)OC(=O)NC(Cc1ccc(O)cc1)C(=O)N1CCCC1C(=O)O (stereo not drawn) (Boc-Tyr-Pro-OH; configuration not given here) and give its measured growth inhibition.
-22.9
